TARGET_OF_ASSAY: Recombinant human calpain I (Homo sapiens)
Construct: made in house
Sequence (P07384 1-714): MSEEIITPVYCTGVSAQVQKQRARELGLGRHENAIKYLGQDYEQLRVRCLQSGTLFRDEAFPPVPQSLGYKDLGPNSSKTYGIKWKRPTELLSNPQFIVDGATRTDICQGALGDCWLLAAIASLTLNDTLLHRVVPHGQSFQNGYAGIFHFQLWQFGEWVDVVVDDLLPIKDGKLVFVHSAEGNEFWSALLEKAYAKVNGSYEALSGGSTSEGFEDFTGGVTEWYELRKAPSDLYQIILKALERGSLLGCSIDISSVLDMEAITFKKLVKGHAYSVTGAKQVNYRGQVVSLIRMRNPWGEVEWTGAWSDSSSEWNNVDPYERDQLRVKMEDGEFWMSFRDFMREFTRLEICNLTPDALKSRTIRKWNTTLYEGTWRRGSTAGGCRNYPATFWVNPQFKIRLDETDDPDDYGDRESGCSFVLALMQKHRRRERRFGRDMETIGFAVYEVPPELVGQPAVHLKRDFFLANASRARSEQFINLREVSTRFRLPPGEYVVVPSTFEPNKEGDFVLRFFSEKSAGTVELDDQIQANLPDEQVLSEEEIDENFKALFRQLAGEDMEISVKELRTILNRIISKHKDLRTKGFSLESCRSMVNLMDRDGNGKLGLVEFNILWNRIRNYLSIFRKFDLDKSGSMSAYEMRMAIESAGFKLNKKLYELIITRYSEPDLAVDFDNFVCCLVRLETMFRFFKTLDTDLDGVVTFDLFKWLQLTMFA
Sequence (P04632 1-268 partner): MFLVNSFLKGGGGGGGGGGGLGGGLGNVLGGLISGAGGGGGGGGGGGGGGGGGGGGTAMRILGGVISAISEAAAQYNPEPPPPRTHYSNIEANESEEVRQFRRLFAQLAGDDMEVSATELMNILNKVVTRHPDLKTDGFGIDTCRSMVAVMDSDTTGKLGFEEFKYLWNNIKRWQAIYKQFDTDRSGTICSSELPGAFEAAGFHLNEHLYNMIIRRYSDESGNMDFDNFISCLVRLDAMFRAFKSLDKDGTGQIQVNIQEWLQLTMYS
TEST: Inhibition of cysteine protease activity: calpain I, Succ-Leu-Tyr-MNA substrate hydrolysis
Format: biochemical
APPLIED_CONDITIONS: Table 5, achiral P2 mimetic α-ketoamides
Recorded pIC50 by entry
// scale note: pIC50 = -log10(conc_M); give the bare number

CCc1cccc(CC)c1C(=O)N[C@@H](Cc1ccccc1)C(=O)C(=O)NCCNS(=O)(=O)c1ccc(-c2ccon2)s1 [Compound 137] : 6.84

State its pIC50: O=C(NCCNS(=O)(=O)c1ccc(-c2ccccn2)s1)C(=O)[C@H](Cc1ccccc1)NC(=O)c1c(F)cccc1F [Compound 120]
7.70

Indicate its recorded pIC50; the compound in question is N#Cc1cccc(-c2ccc(S(=O)(=O)NCCNC(=O)C(=O)[C@H](Cc3ccccc3)NC(=O)c3c(F)cccc3F)s2)c1 [Compound 135]
7.66

Specify pIC50 for O=C(NCCNS(=O)(=O)c1ccc(-c2ccccn2)s1)C(=O)[C@H](Cc1ccccc1)NC(=O)c1c(Cl)cccc1Cl [Compound 118] and stop.
7.44

Complete the entry with pIC50 for O=C(NCCNS(=O)(=O)c1ccc(-c2ccccn2)s1)C(=O)[C@H](Cc1ccccc1)NC(=O)c1cc(C(F)(F)F)cc(C(F)(F)F)c1 [Compound 126]
6.22

Return pIC50 (reported value) for this compound: Cc1cccc(C)c1C(=O)N[C@@H](Cc1ccccc1)C(=O)C(=O)NCCNS(=O)(=O)c1ccc(-c2ccccn2)s1 [Compound 127]
6.75
